Source: patent US8563000B2

systemUnderTest: UniProtKB P33032
testDescription: Cyclic AMP bioassay (ECL), CHO-K1 cells expressing hMC5
runConditions: intracellular cAMP
Item-by-item account of EC50
Numbers only here, please. The scale is µM.

Use the examples below as a reference point.
itemSmiles	systemUnderTest	val
N=C(N)NCCC[C@@H]1NC(=O)[C@@H](Cc2ccccc2)NC(=O)[C@H](Cc2cnc[nH]2)NC(=O)[C@H](CCC(=O)O)NC(=O)[C@@H](NC(=O)CN2C(=O)N[C@H](CCCNC(=N)N)C2=O)CSSC[C@@H](C(N)=O)NC(=O)[C@H](Cc2c[nH]c3ccccc23)NC1=O	UniProtKB P33032	2.71
C[C@@H]1C(=O)N[C@@H](Cc2cnc[nH]2)C(=O)N[C@H](Cc2ccccc2)C(=O)N[C@@H](CCCNC(=N)N)C(=O)N[C@@H](Cc2c[nH]c3ccccc23)C(=O)N[C@H](C(N)=O)CCCNC(=O)C[C@@H]2NC(=O)N1C2=O	UniProtKB P33032	9.3

Input: Find the measured EC50 of `C[C@H]1NC(=O)[C@@H](NC(=O)[C@@H](CCCNC(=N)N)N2C(=O)CNC2=O)CSSC[C@@H](C(N)=O)NC(=O)[C@H](Cc2c[nH]c3ccccc23)NC(=O)[C@H](CCCNC(=N)N)NC(=O)[C@@H](Cc2ccccc2)NC(=O)[C@H](Cc2cnc[nH]2)NC1=O` and report it.
Output: 9.84

###

# Ki per entry for hMC5 (Homo sapiens, UniProt P33032)
Give the value in µM but do not write µM after it.

# count of solved cases: 2
itemSmiles	Ki (µM)
N=C(N)NCCC[C@@H]1NC(=O)[C@@H](Cc2ccc3ccccc3c2)NC(=O)C2(Cc3ccccc3C2)N2C(=O)N[C@@H](CC(=O)NCCCC[C@@H](C(N)=O)NC(=O)[C@H](Cc3c[nH]c4ccccc34)NC1=O)C2=O	1.16
C[C@@H]1C(=O)N[C@@H](Cc2cnc[nH]2)C(=O)N[C@H](Cc2ccccc2)C(=O)N[C@@H](CCCNC(=N)N)C(=O)N[C@@H](Cc2c[nH]c3ccccc23)C(=O)N[C@H](C(N)=O)CCCNC(=O)C[C@@H]2NC(=O)N1C2=O	6.4

Pending molecule:
Input: Recall the reported Ki of `N=C(N)NCCC[C@@H]1NC(=O)[C@@H](Cc2ccc3ccccc3c2)NC(=O)C2(CC2)N2C(=O)N[C@@H](CC(=O)NCCCC[C@@H](C(N)=O)NC(=O)[C@H](Cc3c[nH]c4ccccc34)NC1=O)C2=O` on hMC5 (Homo sapiens, UniProt P33032) and write it down.
Sequence (P33032 whole entry): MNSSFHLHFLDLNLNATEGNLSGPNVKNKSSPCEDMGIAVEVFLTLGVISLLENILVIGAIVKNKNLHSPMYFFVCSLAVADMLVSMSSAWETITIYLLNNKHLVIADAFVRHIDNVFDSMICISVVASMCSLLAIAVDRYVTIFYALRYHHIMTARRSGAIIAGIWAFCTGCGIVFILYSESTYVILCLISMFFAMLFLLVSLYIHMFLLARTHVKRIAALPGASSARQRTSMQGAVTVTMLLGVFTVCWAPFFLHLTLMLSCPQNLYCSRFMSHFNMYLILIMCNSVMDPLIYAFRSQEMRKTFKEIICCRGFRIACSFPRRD
Output: 2.88
